Test system: HOP-62
Assay: relative viability (nuclei count vs DMSO), 5 days (fraction); higher = more cells survive
Details: first compound 2.53 µM
Values of relative viability strictly less than 0.6 map to label 1, and values of at least 0.6 map to label 0.

• O=c1[nH]c2ccccc2n1C1CCN(CCCC(c2ccc(F)cc2)c2ccc(F)cc2)CC1 [Pimozide] + COc1cc2c(Oc3ccc(NC(=O)C4(C(=O)Nc5ccc(F)cc5)CC4)cc3F)ccnc2cc1OCCCN1CCOCC1 [Foretinib] (partner 0.25 µM) = label 0
• Cc1cnc(-c2cnc(NCCNc3ccc(C#N)cn3)nc2-c2ccc(Cl)cc2Cl)[nH]1 + CC(C)C[C@H](NC(=O)[C@H](Cc1ccccc1)NC(=O)c1cnccn1)B(O)O [Bortezomib] (partner 0.002 µM) = label 0
• O=c1[nH]c2ccccc2n1C1CCN(CCCC(c2ccc(F)cc2)c2ccc(F)cc2)CC1 [Pimozide] + N=C(N)NC(=N)NCCc1ccccc1 [Phenformin] (partner 250 µM) = label 0
• Cc1cnc(-c2cnc(NCCNc3ccc(C#N)cn3)nc2-c2ccc(Cl)cc2Cl)[nH]1 + CC(=O)c1c(C)c2cnc(Nc3ccc(N4CCNCC4)cn3)nc2n(C2CCCC2)c1=O [Palbociclib] (partner 0.5 µM) = label 1
• Cc1cnc(-c2cnc(NCCNc3ccc(C#N)cn3)nc2-c2ccc(Cl)cc2Cl)[nH]1 + CS(=O)(=O)N1CCN(Cc2cc3nc(-c4cccc5[nH]ncc45)nc(N4CCOCC4)c3s2)CC1 [Pictilisib] (partner 1 µM) = label 0

---

Test system: NCI-H650
Assay: relative viability (nuclei count vs DMSO), 5 days (fraction); higher = more cells survive
Conditions: first compound 4 µM
Below is a list of entries, each paired with its recorded relative viability value.
Experimental Endpoint: relative viability

- Cc1sc2c(c1C)C(c1ccc(Cl)cc1)=N[C@@H](CC(=O)OC(C)(C)C)c1nnc(C)n1-2 [JQ1] + CC(=O)c1c(C)c2cnc(Nc3ccc(N4CCNCC4)cn3)nc2n(C2CCCC2)c1=O [Palbociclib] (partner 0.5 µM): 0.164
- Cc1sc2c(c1C)C(c1ccc(Cl)cc1)=N[C@@H](CC(=O)OC(C)(C)C)c1nnc(C)n1-2 [JQ1] + C[C@@H](Oc1cc(-c2cnn(C3CCNCC3)c2)cnc1N)c1c(Cl)ccc(F)c1Cl [Crizotinib] (partner 1 µM): 0.195
- Cc1sc2c(c1C)C(c1ccc(Cl)cc1)=N[C@@H](CC(=O)OC(C)(C)C)c1nnc(C)n1-2 [JQ1] + Cc1cc(Nc2cc(N3CCN(C)CC3)nc(Sc3ccc(NC(=O)C4CC4)cc3)n2)n[nH]1 [Tozasertib] (partner 0.1 µM): 0.177
- Cc1sc2c(c1C)C(c1ccc(Cl)cc1)=N[C@@H](CC(=O)OC(C)(C)C)c1nnc(C)n1-2 [JQ1] + CCNC(=O)c1noc(-c2cc(C(C)C)c(O)cc2O)c1-c1ccc(CN2CCOCC2)cc1 [Luminespib] (partner 0.01 µM): 0.212
- Cc1sc2c(c1C)C(c1ccc(Cl)cc1)=N[C@@H](CC(=O)OC(C)(C)C)c1nnc(C)n1-2 [JQ1] + CS(=O)(=O)N1CCN(Cc2cc3nc(-c4cccc5[nH]ncc45)nc(N4CCOCC4)c3s2)CC1 [Pictilisib] (partner 1 µM): 0.273
- Cc1sc2c(c1C)C(c1ccc(Cl)cc1)=N[C@@H](CC(=O)OC(C)(C)C)c1nnc(C)n1-2 [JQ1] + Nc1ncn([C@H]2C[C@H](O)[C@@H](CO)O2)c(=O)n1 [Decitabine] (partner 2 µM): 0.249

---

Test system: RERF-LC-KJ
Assay: relative viability (nuclei count vs DMSO), 5 days (fraction); higher = more cells survive
Conditions: first compound 0.02 µM
Experimental Endpoint: relative viability

* CC(=O)O[C@@]12CO[C@@H]1C[C@H](O)[C@@]1(C)C(=O)[C@H](O)C3=C(C)[C@@H](OC(=O)[C@H](O)[C@@H](NC(=O)OC(C)(C)C)c4ccccc4)C[C@@](O)([C@@H](OC(=O)c4ccccc4)[C@H]21)C3(C)C [Docetaxel] + CC1(C)CCC(c2ccc(Cl)cc2)=C(CN2CCN(c3ccc(C(=O)NS(=O)(=O)c4ccc(N[C@H](CCN5CCOCC5)CSc5ccccc5)c(S(=O)(=O)C(F)(F)F)c4)cc3)CC2)C1 [Navitoclax] (partner 0.5 µM) | 0.154
* CC(=O)O[C@@]12CO[C@@H]1C[C@H](O)[C@@]1(C)C(=O)[C@H](O)C3=C(C)[C@@H](OC(=O)[C@H](O)[C@@H](NC(=O)OC(C)(C)C)c4ccccc4)C[C@@](O)([C@@H](OC(=O)c4ccccc4)[C@H]21)C3(C)C [Docetaxel] + CC(=O)c1c(C)c2cnc(Nc3ccc(N4CCNCC4)cn3)nc2n(C2CCCC2)c1=O [Palbociclib] (partner 0.5 µM) | 0.165
* CC(=O)O[C@@]12CO[C@@H]1C[C@H](O)[C@@]1(C)C(=O)[C@H](O)C3=C(C)[C@@H](OC(=O)[C@H](O)[C@@H](NC(=O)OC(C)(C)C)c4ccccc4)C[C@@](O)([C@@H](OC(=O)c4ccccc4)[C@H]21)C3(C)C [Docetaxel] + NC(=O)Nc1cc(-c2cccc(F)c2)sc1C(=O)N[C@H]1CCCNC1 [AZD7762] (partner 0.2 µM) | 0.128

---

Test system: LXF-289
Assay: relative viability (nuclei count vs DMSO), 5 days (fraction); higher = more cells survive
Conditions: first compound 0.005 µM
Values of relative viability strictly less than 0.8 map to 1, and values of at least 0.8 map to -1.

- Nc1ccn([C@@H]2O[C@H](CO)[C@@H](O)[C@@H]2O)c(=O)n1 [Cytarabine] + CC(=O)c1c(C)c2cnc(Nc3ccc(N4CCNCC4)cn3)nc2n(C2CCCC2)c1=O [Palbociclib] (partner 0.5 µM): 1
- COc1cc2nccc(Oc3ccc(NC(=O)Nc4cc(C)on4)c(Cl)c3)c2cc1OC [Tivozanib] + CC(=O)c1c(C)c2cnc(Nc3ccc(N4CCNCC4)cn3)nc2n(C2CCCC2)c1=O [Palbociclib] (partner 0.5 µM): 1
- COc1cc2nccc(Oc3ccc(NC(=O)Nc4cc(C)on4)c(Cl)c3)c2cc1OC [Tivozanib] + N=C(N)NC(=N)NCCc1ccccc1 [Phenformin] (partner 250 µM): 1
- Nc1ccn([C@@H]2O[C@H](CO)[C@@H](O)[C@@H]2O)c(=O)n1 [Cytarabine] + N=C(N)NC(=N)NCCc1ccccc1 [Phenformin] (partner 250 µM): 1
- COc1cc2nccc(Oc3ccc(NC(=O)Nc4cc(C)on4)c(Cl)c3)c2cc1OC [Tivozanib] + Nc1nc2[nH]cc(CCc3ccc(C(=O)N[C@@H](CCC(=O)O)C(=O)O)cc3)c2c(=O)[nH]1 [Pemetrexed] (partner 0.2 µM): -1
- COc1cc2nccc(Oc3ccc(NC(=O)Nc4cc(C)on4)c(Cl)c3)c2cc1OC [Tivozanib] + C[C@@H](Oc1cc(-c2cnn(C3CCNCC3)c2)cnc1N)c1c(Cl)ccc(F)c1Cl [Crizotinib] (partner 1 µM): 1
- Nc1ccn([C@@H]2O[C@H](CO)[C@@H](O)[C@@H]2O)c(=O)n1 [Cytarabine] + NC(=O)Nc1cc(-c2cccc(F)c2)sc1C(=O)N[C@H]1CCCNC1 [AZD7762] (partner 0.2 µM): -1
- COc1cc2nccc(Oc3ccc(NC(=O)Nc4cc(C)on4)c(Cl)c3)c2cc1OC [Tivozanib] + CS(=O)(=O)CCNCc1ccc(-c2ccc3ncnc(Nc4ccc(OCc5cccc(F)c5)c(Cl)c4)c3c2)o1 [Lapatinib] (partner 2 µM): -1
- Nc1ccn([C@@H]2O[C@H](CO)[C@@H](O)[C@@H]2O)c(=O)n1 [Cytarabine] + COc1cccc2cc(-c3nc([C@H]4CC[C@H](C(=O)O)CC4)n4ncnc(N)c34)[nH]c12 [OSI-027] (partner 0.5 µM): 1

---

Below is a list of entries, each paired with its recorded relative viability value.
System: ABC-1
Assay: relative viability (nuclei count vs DMSO), 5 days (fraction); higher = more cells survive
Conditions: first compound 0.002 µM
Experimental Endpoint: relative viability

• CC(=O)O[C@@]12CO[C@@H]1C[C@H](O)[C@@]1(C)C(=O)[C@H](O)C3=C(C)[C@@H](OC(=O)[C@H](O)[C@@H](NC(=O)OC(C)(C)C)c4ccccc4)C[C@@](O)([C@@H](OC(=O)c4ccccc4)[C@H]21)C3(C)C [Docetaxel] + C[C@@H](Oc1cc(-c2cnn(C3CCNCC3)c2)cnc1N)c1c(Cl)ccc(F)c1Cl [Crizotinib] (partner 1 µM) = 0.274
• CC(=O)O[C@@]12CO[C@@H]1C[C@H](O)[C@@]1(C)C(=O)[C@H](O)C3=C(C)[C@@H](OC(=O)[C@H](O)[C@@H](NC(=O)OC(C)(C)C)c4ccccc4)C[C@@](O)([C@@H](OC(=O)c4ccccc4)[C@H]21)C3(C)C [Docetaxel] + Cc1nc(NC(=O)N2CCC[C@H]2C(N)=O)sc1-c1ccnc(C(C)(C)C(F)(F)F)c1 [Alpelisib] (partner 2 µM) = 0.493
• CC(=O)O[C@@]12CO[C@@H]1C[C@H](O)[C@@]1(C)C(=O)[C@H](O)C3=C(C)[C@@H](OC(=O)[C@H](O)[C@@H](NC(=O)OC(C)(C)C)c4ccccc4)C[C@@](O)([C@@H](OC(=O)c4ccccc4)[C@H]21)C3(C)C [Docetaxel] + O=C(CCCCCCC(=O)Nc1ccccc1)NO [Vorinostat] (partner 1 µM) = 0.44
• CC(=O)O[C@@]12CO[C@@H]1C[C@H](O)[C@@]1(C)C(=O)[C@H](O)C3=C(C)[C@@H](OC(=O)[C@H](O)[C@@H](NC(=O)OC(C)(C)C)c4ccccc4)C[C@@](O)([C@@H](OC(=O)c4ccccc4)[C@H]21)C3(C)C [Docetaxel] + Nc1ncn([C@H]2C[C@H](O)[C@@H](CO)O2)c(=O)n1 [Decitabine] (partner 2 µM) = 1.01
• CC(=O)O[C@@]12CO[C@@H]1C[C@H](O)[C@@]1(C)C(=O)[C@H](O)C3=C(C)[C@@H](OC(=O)[C@H](O)[C@@H](NC(=O)OC(C)(C)C)c4ccccc4)C[C@@](O)([C@@H](OC(=O)c4ccccc4)[C@H]21)C3(C)C [Docetaxel] + C[C@]1(O)C[C@@H](c2nc(-c3ccc4ccc(-c5ccccc5)nc4c3)c3c(N)nccn32)C1 [Linsitinib] (partner 1 µM) = 0.424
